system_name: UniProtKB P43490
assay_remarks: NAMPT enzyme assay (TR-FRET/HTRF, BodiPY ligand, anti 6His-Tb)
Format: binding
recorded_conditions: NAMPT IC50 range class; read-out: IC50
pIC50: −log10 of the molar value.
Listing: pIC50 of selected molecules

Worked examples follow.
INPUT: Entry O=C(NCCn1nnnc1S)c1ccc2nc(-c3ccc(F)cc3)c(-c3ccc(F)cc3)nc2c1 [Compound I-139] : reported pIC50 = ?
OUTPUT: 5.70 to 6.00

INPUT: Try the molecule O=C(NCCCn1ccnc1)c1ccc2nc(-c3cncnc3)c(-c3ccccc3)nc2c1 [Compound I-242]
OUTPUT: 5.70 to 6.00

INPUT: Try the molecule CS(=O)(=O)c1cccc(-c2nc3ccc(C(=O)NCCCn4ccnc4)cc3nc2-c2ccccc2)c1 [Compound I-182]
OUTPUT: 6.30 to 7.00

INPUT: Try the molecule CN1CC=C(c2nc3ccc(C(=O)NCCCn4ccnc4)cc3nc2-c2ccccc2)CC1 [Compound I-165]
OUTPUT: 6.30 to 7.00

INPUT: Try the molecule O=C(NCCc1ccccn1)c1ccc2nc(N3CCC(C4CCNCC4)CC3)c(-c3ccccc3)nc2c1 [Compound I-130]
OUTPUT: 6.30 to 7.00

INPUT: Try the molecule O=C(NCCCn1ccnc1)c1ccc2nc(NC3CCC3)c(-c3ccccc3)nc2c1 [Compound I-274]
OUTPUT: 5.00 to 5.70

INPUT: Try the molecule O=C(NCCCc1ncc[nH]1)c1ccc2nc(-c3ccc(F)cc3)c(-c3cccs3)nc2c1 [Compound I-340]
OUTPUT: > 7.00

More entries:
INPUT: Entry CC1(C)CN(c2nc3ccc(C(=O)NCCCn4ccnc4)cc3nc2-c2ccccc2)CCO1 [Compound I-31] : reported pIC50 = ?
OUTPUT: > 7.00

###

Listing: inhibition at 1 µM of selected molecules
system_name: hNAMPT protein (Homo sapiens (Human))
Sequence (P43490 whole entry): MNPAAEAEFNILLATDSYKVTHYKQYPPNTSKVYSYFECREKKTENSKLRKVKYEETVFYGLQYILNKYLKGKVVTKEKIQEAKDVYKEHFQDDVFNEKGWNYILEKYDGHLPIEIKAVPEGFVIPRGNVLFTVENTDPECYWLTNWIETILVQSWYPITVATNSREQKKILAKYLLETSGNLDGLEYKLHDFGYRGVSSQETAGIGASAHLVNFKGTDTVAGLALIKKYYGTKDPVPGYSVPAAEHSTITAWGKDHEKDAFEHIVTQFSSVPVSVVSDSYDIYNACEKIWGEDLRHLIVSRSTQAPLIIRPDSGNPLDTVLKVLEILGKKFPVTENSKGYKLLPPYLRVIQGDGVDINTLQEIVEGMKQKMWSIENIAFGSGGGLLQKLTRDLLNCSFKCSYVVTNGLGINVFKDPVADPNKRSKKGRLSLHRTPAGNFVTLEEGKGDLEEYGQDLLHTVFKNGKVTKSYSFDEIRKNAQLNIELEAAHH
assay_remarks: NAMPT enzyme assay (TR-FRET/HTRF, BodiPY ligand, anti 6His-Tb)
Assay type: binding
recorded_conditions: NAMPT inhibition at compound concentration 1 μM; read-out: Percent Inhibition
// return numeric value only (unit: %, not printed)

INPUT: Entry CCOc1nc2ccc(C(=O)NCCCc3ncc[nH]3)cc2nc1-c1ccc(Cl)cc1 [Compound I-402] : reported inhibition at 1 µM = ?
OUTPUT: 97

INPUT: Try the molecule COc1cccc(-c2nc3cc(C(=O)NCCCc4ncc[nH]4)ccc3nc2-c2ccc(F)cc2)c1 [Compound I-484]
OUTPUT: 99

INPUT: Try the molecule O=C(NCCCc1ncc[nH]1)c1ccc2nc(-c3ccc(F)cc3)c(-c3cc(F)ccc3Cl)nc2c1 [Compound I-399]
OUTPUT: 95

INPUT: Try the molecule O=C(NCCCc1ncc[nH]1)c1ccc2nc(-c3ccc(F)cc3)c(-c3cn[nH]c3)nc2c1 [Compound I-429]
OUTPUT: 90

INPUT: Try the molecule O=C(NCCCc1ncc[nH]1)c1ccc2nc(-c3ccc(F)cc3)c(-c3ccc(Cl)s3)nc2c1 [Compound I-499]
OUTPUT: 98

INPUT: Try the molecule COc1cc(-c2nc3cc(C(=O)NCc4nc5cnccc5[nH]4)ccc3nc2-c2ccc(F)cc2)c(F)cn1 [Compound I-516]
OUTPUT: 93

INPUT: Try the molecule C#Cc1cccc(-c2nc3cc(C(=O)NCCCc4ncc[nH]4)ccc3nc2-c2ccc(F)cc2)c1 [Compound I-425]
OUTPUT: 87

INPUT: Try the molecule CC(C)Oc1nc2cc(F)c(C(=O)NCCCc3ncc[nH]3)cc2nc1-c1ccc(F)cc1 [Compound I-491]
OUTPUT: 83

INPUT: Try the molecule Nc1ccc(-c2nc3cc(C(=O)NCCCc4ncc[nH]4)ccc3nc2-c2ccc(F)cc2)cc1 [Compound I-479]
OUTPUT: 75

INPUT: Try the molecule CCOc1nc2ccc(C(=O)NCCCc3ncc[nH]3)cc2nc1-c1ccc(F)cc1 [Compound I-440]
OUTPUT: 94

More entries:
INPUT: Entry CN(C)CCOc1nc2ccc(C(=O)NCCCc3ncc[nH]3)cc2nc1-c1ccc(F)cc1 [Compound I-509] : reported inhibition at 1 µM = ?
OUTPUT: 94

INPUT: Try the molecule COc1cccc(-c2nc3cc(C(=O)NCCCc4ncc[nH]4)ccc3nc2-c2ccc(F)cc2)c1F [Compound I-398]
OUTPUT: 93

INPUT: Try the molecule COc1ccc(-c2nc3cc(C(=O)NCCCc4ncc[nH]4)ccc3nc2-c2ccc(F)cc2)c(F)c1 [Compound I-415]
OUTPUT: 75

INPUT: Try the molecule O=C(NCCCc1ncc[nH]1)c1ccc2nc(-c3ccc(F)cc3)c(-c3cc(F)c(F)c(F)c3)nc2c1 [Compound I-449]
OUTPUT: 82

INPUT: Try the molecule O=C(NCCCc1ncc[nH]1)c1ccc2nc(OC3CCNCC3)c(-c3ccc(F)cc3)nc2c1 [Compound I-514]
OUTPUT: 97

INPUT: Try the molecule O=C(NCCCc1ncc[nH]1)c1ccc2nc(CN3CCOCC3)c(-c3ccc(F)cc3)nc2c1 [Compound I-405]
OUTPUT: 72

INPUT: Try the molecule CC(C)Oc1nc2ccc(C(=O)NCc3ccc4nccn4c3)cc2nc1-c1ccc(Cl)s1 [Compound I-403]
OUTPUT: 89

INPUT: Try the molecule O=C(NCCCc1ncc[nH]1)c1ccc2nc(Cc3ccc(Cl)cc3)c(-c3ccc(F)cc3)nc2c1 [Compound I-476]
OUTPUT: 88
